Data origin: patent US4913909A

- run.description: acute oral toxicity
- Parameters: species or system male mice of ddY strain
- condition.set: mouse, in vivo, male ddY mice, fasted overnight, read-out: 50% lethal dose (LD50)
endpoint.name: LD50 (mg/kg)
I only need the number, in mg/kg, no unit after it.

Query block: Answer with reported LD50 of O=C(O[C@@H]1Cc2c(O)cc(O)cc2O[C@@H]1c1cc(O)c(O)c(O)c1)c1cc(O)c(O)c(O)c1 [EGCg, (-)-epigallocatechin gallate]
Result block: 2500
